Test system: COS-7 and HepG2 cells
Assay: Cell survival after transfection (cell line not given)
Type: cell-based
Details: Table 1; cell line and helper lipid not given
Quick list: % surv cells per entry.
measurement_type: % surv cells (%)

[[record]]
compound = "CCCCCCCCCCCCCc1cc[n+](CCCCCCCC)cc1.[Cl-] [SF32, 1-octyl-4-tridecyl-pyridinium Chloride]"
assay_system = "COS-7 and HepG2 cells"
quantitative_result = 71.07

[[record]]
compound = "CCCCCCCCCCCCCc1cc[n+](CCCCCCCCCC)cc1.[Cl-] [SF33, 1-decyl-4-tridecyl-pyridinium Chloride]"
assay_system = "COS-7 and HepG2 cells"
quantitative_result = 78.47

[[record]]
compound = "CCCCCCCC/C=C\\CCCCCCCC[n+]1ccc(CCCCCCCCCCCCC)cc1.[Cl-]"
assay_system = "COS-7 and HepG2 cells"
quantitative_result = 78.45

[[record]]
compound = "CCCCCCCCCCCCCc1cc[n+](CCCCCCCCCCCC)cc1.[Cl-] [SF34, 1-dodecyl-4-tridecyl-pyridinium Chloride]"
assay_system = "COS-7 and HepG2 cells"
quantitative_result = 56.91


###

System: HepG2
Experiment: Cell survival after transfection (Table 3); note: tested at 6.8 µM
Format: cell-based
Conditions: HepG2, DOPE, mean
Label Criterion met when % surv cells Mean < 30%; otherwise Criterion not met.

[[record]]
smiles_str = "CCCCCCCC/C=C\\CCCCCCCC[n+]1ccc(CCCCCCCCCCC)cc1"
label_class = "Criterion not met"

[[record]]
smiles_str = "CCCCCCCC/C=C\\CCCCCCCCCc1cc[n+](CCCCCCCCCCCCCCCCCC)cc1.[Cl-]"
label_class = "Criterion met"

[[record]]
smiles_str = "CCCCCCCC/C=C\\CCCCCCCC[n+]1ccc(CCCCCCCCC)cc1.[Cl-]"
label_class = "Criterion not met"

[[record]]
smiles_str = "CCCCCCCC/C=C\\CCCCCCCC[n+]1ccc(CCC)cc1.[Cl-]"
label_class = "Criterion met"


###

Tested on: COS-7 and HepG2 cells
Experiment: Cell survival after transfection (cell line not given)
Format: cell-based
Conditions: Table 11; second value; cell line and helper lipid not given
Below, each of the compounds is paired with its reported % surv value.
measurement_type: % surv (%)

[[record]]
compound = "CCCCCCCC/C=C\\CCCCCCCC[n+]1ccc(CCCCCCCCCCCCCCCCCCC)cc1.[Cl-]"
u = "%"
quantitative_result = 86.98

[[record]]
compound = "CCCCCCCC/C=C\\CCCCCCCC[n+]1ccc(CCCCCCCCCCCCCCC)cc1.[Cl-]"
u = "%"
quantitative_result = 87.46

[[record]]
compound = "CCCCCCCC/C=C\\CCCCCCCC[n+]1ccc(CCCCCCCCCCCCCCCCC)cc1.[Cl-]"
u = "%"
quantitative_result = 85.09

[[record]]
compound = "CCCCCCCC/C=C\\CCCCCCCCC(CCCCCCCC/C=C\\CCCCCCCC)c1cc[n+](C)cc1.[Cl-] [S2, reference compound]"
u = "%"
quantitative_result = 86.84

[[record]]
compound = "CCCCCCCC/C=C\\CCCCCCCC[n+]1ccc(CCCCCCCCCCC)cc1"
u = "%"
quantitative_result = 83.37

[[record]]
compound = "CCCCCCCC/C=C\\CCCCCCCC[n+]1ccc(CCCCCCCCC)cc1.[Cl-]"
u = "%"
quantitative_result = 82.5


###

System: COS-7 and HepG2 cells
Assay: Cell survival after transfection (cell line not given)
Assay type: cell-based
Conditions: Table 1; cell line and helper lipid not given
measurement_type: % surv cells (%)

[[record]]
compound = "CCCCCCCCCCCCCCCC[n+]1ccc(CCCCCCCCCCCCC)cc1.[Cl-]"
measurement_type = "% surv cells"
quantitative_result = 76.77

[[record]]
compound = "CCCCCCCCCCCCCCCCCC[n+]1ccc(CCCCCCCCCCCCC)cc1.[Cl-] [SF37, 1-stearyl-4-tridecyl-pyridinium Chloride]"
measurement_type = "% surv cells"
quantitative_result = 70.04

[[record]]
compound = "CCCCCCCC/C=C\\CCCCCCCCC(CCCCCCCC/C=C\\CCCCCCCC)c1cc[n+](C)cc1.[Cl-] [S2, reference compound]"
measurement_type = "% surv cells"
quantitative_result = 62.6

[[record]]
compound = "CCCCCCCC/C=C\\CCCCCCCCCc1cc[n+](CCCCCCCC/C=C\\CCCCCCCC)cc1.[Cl-]"
measurement_type = "% surv cells"
quantitative_result = 75.3

[[record]]
compound = "CCCCCCCCCCCCCC[n+]1ccc(CCCCCCCCCCCCC)cc1.[Cl-]"
measurement_type = "% surv cells"
quantitative_result = 65.49

